Values from the supplement of paper PMC12494721

tested on: Ruminococcus gnavus DSM 108212; assay: fold change of Tryptamine concentration vs plate DMSO controls (fold change (ratio)); higher = more amine produced, active = hit call of the paper (significant change in both replicates, either direction); details: incubation time: 27 h, anaerobic, 37 °C;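 for the amine columns active = adjusted P below 0.05 in both replicates with a change the same way and a mean fold change under 0.8 or over 1.25; inactive = the rest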
Counter-ions that a name gives are not always drawn.
Outcome codes: y (active), n (inactive)

# Molecule, Class Assignment
rows = [
    ("Nc1ccc(/N=N/c2ccccc2)c(N)n1 [Phenazopyridine hydrochloride] (20 µM)", "n"),
    ("C[C@H](O)C(=O)Nc1c(I)c(C(=O)NC(CO)CO)c(I)c(C(=O)NC(CO)CO)c1I [Iopamidol] (20 µM)", "n"),
    ("CN1CCCCC1CCN1c2ccccc2Sc2ccc([S+](C)[O-])cc21 (stereo not drawn) [Mesoridazine besylate] (20 µM)", "n"),
    ("CC[C@H](c1ccc(O)cc1)[C@@H](CC)c1ccc(O)cc1 [Hexestrol] (20 µM)", "y"),
    ("O=C(Nc1ccc([N+](=O)[O-])cc1Cl)c1cc(Cl)ccc1O [Niclosamide] (20 µM)", "n"),
    ("Cc1cc(C2CCCCC2)n(O)c(=O)c1 [Ciclopirox ethanolamine] (20 µM)", "n"),
    ("CC/C(=C(\\c1ccccc1)c1ccc(OCCN(C)C)cc1)c1ccccc1 [Tamoxifen citrate] (20 µM)", "y"),
    ("C[C@]1(Cn2ccnn2)[C@H](C(=O)O)N2C(=O)C[C@H]2S1(=O)=O [Tazobactam] (20 µM)", "n"),
]
